TEST: NCI Yeast Anticancer Drug Screen. Data for the mlh1 rad18 strain (AID 175)
MEASUREMENT_CONTEXT: S. cerevisiae mlh1 rad18 strain growth inhibition; at 50.0 µM (retest, dose inferred, filed as 5.0); active compounds read high
The panel holds about 79,000 compounds, 15% with a hit somewhere; the sample as a whole holds those more often.
ASSAY_ENDPOINT: growth inhibition (%)
Please give a number only; it is taken to be in %.

Quick note, growth inhibition for O=C1Nc2c(ccc(Cl)c2I)C1=O landed at 99

Quick note, growth inhibition for COc1ccc(Cc2ccccc2C(=O)O)c2ccccc12 landed at 98

Quick note, growth inhibition for N#CC(C(=O)C(=O)NC1C2CC3CC(C2)CC1C3)c1c(Cl)cccc1Cl (stereo not given) landed at 5

Quick note, growth inhibition for CCN(CC)CCCNc1ccc([N+](=O)[O-])c2nc3ccc(OC)cc3c(N)c12 landed at 74

Quick note, growth inhibition for CC(C)CC(N)C(=O)NNc1ccccc1 (stereo not given) landed at 99

Quick note, growth inhibition for CCCCCCCCCCCCCC/C(=C/OCC[N+](C)(C)C)OC(C)=O (tested in a mixture with another compound) landed at 100

Quick note, growth inhibition for CC(=O)Oc1c(C2CCCCC2)cc([N+](=O)[O-])cc1[N+](=O)[O-] landed at 98

Quick note, growth inhibition for CC(=O)c1sc(Nc2ccc(Cl)c(Cl)c2)nc1C landed at 47

Quick note, growth inhibition for O=S(=O)(ON=C1C=CC(=NOS(=O)(=O)c2ccccc2)C=C1)c1ccccc1 landed at 76

Quick note, growth inhibition for O[C@H](CNCCS)[C@@H](O)CNCCS landed at 3

---

Can you tell me growth inhibition for the items I'm about to list?
TEST: NCI Yeast Anticancer Drug Screen. Data for the rad50 strain (AID 155);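 further: 0% = growth of vehicle-only cultures of the same strain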
MEASUREMENT_CONTEXT: S. cerevisiae rad50 strain growth inhibition; at 50.0 µM; active compounds read high
This is part of a sample that, as a whole, favours compounds with a hit. Of some 79,000 tested, about 15% had one in any assay.
Please give a number only; it is taken to be in %.

Quick note, growth inhibition for Cc1ccc2c(c1)[n+]([O-])c(N)n[n+]2[O-] landed at 75.7

Quick note, growth inhibition for COc1ccccc1NC(=O)c1ccccc1F landed at -2.5

Quick note, growth inhibition for CCCCC(=S)N1CCN(c2ccccc2)CC1 landed at 90.3

Quick note, growth inhibition for O=C(O)/C=C\C(=O)Nc1ccc2c(c1)C(=O)c1cc(F)ccc1-2 landed at 29

---

TEST: NCI Yeast Anticancer Drug Screen. Data for the rad50 strain (AID 155);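 further: 0% = growth of vehicle-only cultures of the same strain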
MEASUREMENT_CONTEXT: S. cerevisiae rad50 strain growth inhibition; at 5.0 µM (retest, dose inferred, filed as 0.5); active compounds read high
About 79,000 compounds went through this panel and 15% of them were active in at least one assay; those are over-represented in the sample as a whole.
ASSAY_ENDPOINT: growth inhibition (%)
Please give a number only; it is taken to be in %.

Quick note, growth inhibition for COc1ccc(S)cc1 landed at 0

Quick note, growth inhibition for O=S(=O)(O)c1ccc(N=Nc2ccc3c(S(=O)(=O)O)cccc3c2O)c2ccccc12 landed at 10

Quick note, growth inhibition for CCN(CC)CCNc1ccc(OC)c2cccnc12 landed at 15

---

Can you tell me growth inhibition for the items I'm about to list?
TEST: NCI Yeast Anticancer Drug Screen. Data for the rad50 strain (AID 155);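 further: 0% = growth of vehicle-only cultures of the same strain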
MEASUREMENT_CONTEXT: S. cerevisiae rad50 strain growth inhibition; at 50.0 µM (retest, dose inferred, filed as 5.0); active compounds read high
This is part of a sample that, as a whole, favours compounds with a hit. Of some 79,000 tested, about 15% had one in any assay.
Please give a number only; it is taken to be in %.

Quick note, growth inhibition for CCc1ccc(C)nc1 landed at -3

Quick note, growth inhibition for O=C1NC(=O)c2cccc3cccc1c23 landed at 68

Quick note, growth inhibition for Nc1ccccc1CCc1ccccc1 landed at 79

Quick note, growth inhibition for ClC(Cl)(Cl)C1=CC2c3ccccc3C1c1ccccc12 landed at 91

Quick note, growth inhibition for c1cnc2ccc3c4cccnc4ccc3c2c1 landed at 95

Quick note, growth inhibition for BrC1CCCCCC1 landed at 10

Quick note, growth inhibition for O=C1C=C(c2ccccc2)OC1(Nc1ccccc1)c1ccccc1 (stereo not drawn) landed at 60

Quick note, growth inhibition for CC12CCC(O)CC1=CCC1C2CCC2(C)/C(=C\C#N)CCC12 (stereo not drawn) landed at 53

---

TEST: NCI Yeast Anticancer Drug Screen. Data for the cln2 rad14 strain (AID 165);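 further: 0% = growth equal to vehicle treated cultures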
MEASUREMENT_CONTEXT: S. cerevisiae cln2 rad14 strain, at 5.0 µM (retest, dose inferred, filed as 0.5)
The panel holds about 79,000 compounds, 15% with a hit somewhere; the sample as a whole holds those more often. Activity calls are given as the source filed them. Rule as the data show it: active = growth inhibition above about 70%; inactive = the rest.
Can you answer with just one of these options? active, inactive

Qu. Outcome logged for OCCN1CCN(CCCN2c3cc(Cl)ccc3Sc3ccsc32)CC1 in this assay:
Ans. inactive

Qu. Outcome logged for Nc1n[nH]c(=O)c2cccnc12 in this assay:
Ans. inactive

Qu. Outcome logged for O=C1C(Br)=C(Sc2ccc([N+](=O)[O-])cc2)C(=O)c2ccccc21 in this assay:
Ans. inactive

Qu. Outcome logged for CN(C)C(=S)Oc1ccc(C(C)(C)C)cc1 in this assay:
Ans. inactive

Qu. Outcome logged for C=CCNc1nc2c(s1)C(=O)c1ccccc1C2=O in this assay:
Ans. active

Qu. Outcome logged for COc1cccc2nc3c(C(=O)NCCN(C)C)cccc3cc12 in this assay:
Ans. inactive

Qu. Outcome logged for CC(C)/C(Cl)=N/OC(NC(=O)Nc1ccc(Cl)c(Cl)c1)(C(F)(F)F)C(F)(F)F in this assay:
Ans. inactive

Qu. Outcome logged for CCOc1ccc(C(=O)CCN2CCOCC2)cc1 in this assay:
Ans. inactive

---

TEST: NCI Yeast Anticancer Drug Screen. Data for the cln2 rad14 strain (AID 165);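 further: 0% = growth equal to vehicle treated cultures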
MEASUREMENT_CONTEXT: S. cerevisiae cln2 rad14 strain, at 5.0 µM (retest, dose inferred, filed as 0.5), active compounds read high
Compounds without any hit were thinned out: in the full panel of roughly 79,000, 15% have a hit.
Can you tell me growth inhibition for the items I'm about to list?
Please give a number only; it is taken to be in %.

Quick note, growth inhibition for COc1cccc(/C=C(\NC(=O)c2ccccc2)c2nc3ccccc3s2)c1 landed at 13

Quick note, growth inhibition for O=C1c2ccccc2C(=O)c2sc(Nc3ccc([N+](=O)[O-])cc3)nc21 landed at 62

Quick note, growth inhibition for Cc1c2ccccc2cc2c1ccc1cccc(F)c12 landed at 8

Quick note, growth inhibition for Cc1nc2c(cnn2C)cc1CCc1ccccc1 landed at 12

Quick note, growth inhibition for CCCN(CCC)c1ccc(Cc2ccc(N(CCC)CCC)cc2N)c(N)c1 landed at -1

Quick note, growth inhibition for C#CCN1CCN(C(=S)N/N=C(\C)c2ccccn2)CC1 landed at 21

Quick note, growth inhibition for c1ccc(-c2ccc(-c3cnc(-c4ccc(-c5ccccc5)cc4)o3)cc2)cc1 landed at -1

Quick note, growth inhibition for CCn1nc(-c2ccccc2)c2c1N(C)c1ccccc1-n1c(-c3ccccc3)nnc1-2 landed at 14

Quick note, growth inhibition for N#CC(C#N)=C/C=C/c1c(Cl)cccc1Cl landed at 29

Quick note, growth inhibition for O=C(Nc1ccc(Cl)cc1)Nc1nnc(/C=C/c2ccc(Cl)c(Cl)c2)o1 landed at 1

Quick note, growth inhibition for COC(=Nc1ccccc1)SSC(C)C landed at 38

Quick note, growth inhibition for CCS(=O)(=O)OC(C)CCl (configuration not stated) landed at -2

---

TEST: NCI Yeast Anticancer Drug Screen. Data for the mlh1 rad18 strain (AID 175)
MEASUREMENT_CONTEXT: S. cerevisiae mlh1 rad18 strain growth inhibition; at 5.0 µM (retest, dose inferred, filed as 0.5); active compounds read high
Compounds without any hit were thinned out: in the full panel of roughly 79,000, 15% have a hit.
Can you tell me growth inhibition for the items I'm about to list?
Please give a number only; it is taken to be in %.

Quick note, growth inhibition for COc1ccccc1Nc1nc(SC)ncc1SC landed at -6

Quick note, growth inhibition for CCN(CC)c1ccc2nc3ccc(N(CC)CC)cc3[n+](-c3ccccc3)c2c1 landed at 99

Quick note, growth inhibition for COC(=O)c1ccc(CCC2=CC(=O)C=CC2=O)cc1 landed at 49

Quick note, growth inhibition for Oc1ccc(Cc2cc(Cl)cc(Cl)c2O)cc1Cl landed at 94

Quick note, growth inhibition for CCCCOS(=O)(=O)c1ccc(C)cc1 landed at -6

Quick note, growth inhibition for N#Cc1c(Cl)nnc(-c2ccccc2)c1-c1ccccc1 landed at 4

Quick note, growth inhibition for CNC(=O)NC(c1cc(OC)c(OC)c(OC)c1)c1cc2c(cc1O)OCO2 (configuration not stated) landed at -19

Quick note, growth inhibition for CCCCCCCCN1C(=O)c2ccccc2S1(=O)=O landed at -2

Quick note, growth inhibition for CCN(CC)CCNc1ccc(OC)c2cccnc12 landed at 17

Quick note, growth inhibition for O=[N+]([O-])c1ccc(CN2CCN(c3nccs3)CC2)cc1 landed at 3

Quick note, growth inhibition for c1csc(-c2nnc(C34CC5CC(CC(C5)C3)C4)o2)c1 landed at -12

Quick note, growth inhibition for CN(C)C(=S)/N=c1\ss/c(=N\C(=S)N(C)C)n1-c1ccc(Cl)cc1 landed at 8

Measured values drawn from PubChem BioAssay (NCI) for this set.
